These entries and their values trace back to paper PMC12040169.

- Protocol notes: in vitro
- Condition details: human, hela cells, % viability
Entries and their measured viability at 28.5 h, 10 µM follow.
Could you give me the number in %? Just the number is fine.

Would you please look over these solved cases?
[[record]]
compound = "CCn1c(C2CCN(C(=O)c3ccc(C)c(Cl)c3)CC2)nn(C)c1=O [CBK307280]"
unit_spec = "%"
result_value = 95.9

[[record]]
compound = "CCn1cc(NCc2ccccc2Cl)c(C(=O)O)n1 [CBK286807]"
unit_spec = "%"
result_value = 95.2

[[record]]
compound = "COC(=O)c1sc(NC(=O)C2CC2)c(C#N)c1C [CBK026049]"
unit_spec = "%"
result_value = 107

[[record]]
compound = "CCc1nnc(NS(=O)(=O)c2ccc(NCc3cc(Cl)cc(Cl)c3O)cc2)s1 [CBK126494]"
unit_spec = "%"
result_value = 112

[[record]]
compound = "O=C(O)c1cccc(NS(=O)(=O)c2ccc(S(=O)(=O)N3CCCCC3)cc2)c1 [CBK295295]"
unit_spec = "%"
result_value = 101


Q: For the compound CCn1c(SCC(=O)Nc2ccc(C#N)cc2)nnc1-c1ccncc1 [CBK270102] , what viability at 28.5 h, 10 µM is on record?
Ans: 96.4

Q: Follow-up item: COc1cccc2sc(Nc3nc4c(s3)C(=O)CC(C)(C)C4)nc12 [CBK287467]
Ans: 86

Q: What do you get for O=C(CSc1ccc(Cl)cc1)Nc1ccc(S(=O)(=O)N2CCOCC2)cc1 [CBK262723] ?
Ans: 95

Q: And then Cc1cc(NC(=O)C2CCN(C(=O)CCSc3ccccc3)CC2)no1 [CBK304329] , what is it?
Ans: 99

Q: Next record, please: CC1(C)CC(=O)C(=CNCCC(c2ccccc2)c2ccccc2)C(=O)C1 [CBK262057]
Ans: 114

Q: Now the same for CC(NC(=O)c1cnc(-c2ccc(Cl)cc2)c(-c2ccc(O)cc2)c1)c1ccc(F)cc1 (centres unmarked) [CBK036751]
Ans: 89.9
